- assay-procedure: Parallel artificial membrane permeability assay
- Format: in vitro ADME
- run-conditions: PAMPA
experimental-endpoint: Papp at 0.5 hr, 50 µM (×10⁻⁶ cm/s)

Guide cases for Papp at 0.5 hr, 50 µM, answers given:
COc1c(I)cc(Cl)c2cccnc12 :: 77.9
Oc1cccc2cccnc12 [Compound 1, 8-hydroxyquinoline, reference compound] :: 21.3
CCOc1cccc2cccnc12 :: 72.6
COc1ccc(Cl)c2cccnc12 :: 30.8

[I] Oc1c(I)cc(Cl)c2cccnc12 [Compound 4, 5-chloro-7-iodo-8-hydroxyquinoline, reference compound]
[II] COc1cccc2cccnc12
Hi! Which is lower in terms of Papp at 0.5 hr, 50 µM, the first one I or the second one II ? Returns: label corresponding to the selected item.
I
(I: 33.4 ×10⁻⁶ cm/s, II: 68.2 ×10⁻⁶ cm/s)
